B1: library; a variant is named by its letters at N, in order (parent)
chain: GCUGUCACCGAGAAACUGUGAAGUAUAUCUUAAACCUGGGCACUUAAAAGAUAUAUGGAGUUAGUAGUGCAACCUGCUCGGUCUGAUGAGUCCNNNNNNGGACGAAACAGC

Variants of: B1
Protocol Description: FACS-Seq fitted mean relative fluorescence mCherry/BFP without ligand (log10 relative fluorescence); HEK293T; ligand: cyclic di-GMP (c-di-GMP-II aptamer); higher = higher reporter protein expression
Run Parameters: ligand present: no
For each of the variants below, state its FACS-Seq fitted mean (log10).
Give bare numbers.

Solved cases below.
In [3]: df
Out[3]:
   mutations                   result_type  value_observed
0     CCGUAU  FACS-Seq fitted mean (log10)          -0.719
1     GCUGGU  FACS-Seq fitted mean (log10)         -0.0949
2     AUAACG  FACS-Seq fitted mean (log10)         -0.0695
3     AUGACU  FACS-Seq fitted mean (log10)           -1.21
4     CCCUCA  FACS-Seq fitted mean (log10)          -0.416

Each variant below has a recorded value; state its FACS-Seq fitted mean (log10).
1. CUAAAU
2. GCGGAC
3. AGUAAA
4. CCUGGC
5. AGUGGG
6. CAAAAU
7. AGACUA

**Result**
-0.443
-0.751
-0.319
-0.646
-0.534
-0.237
-0.122

Each variant below has a recorded value; state its FACS-Seq fitted mean (log10).
1. GAAAAA
2. CUGCGG

**Result**
[-0.369, 0.154]

Each variant below has a recorded value; state its FACS-Seq fitted mean (log10).
1. CUGAUA
2. CCUUCA
3. CACACA
4. GAGUAA
5. GCUUCA
6. ACUCAG

**Result**
[-0.362, -0.388, -0.628, -0.0125, -0.32, -0.836]
